Tested on: SR leukemia
assay method text: NCI-60 one-dose screen, 48 h (100 = growth as untreated, 0 = no growth, -100 = all killed)
experimental conditions: 10 µM unless noted
About 83,000 compounds went through this panel and 20% of them were active in at least one assay; those are over-represented in the sample as a whole.
property label: growth (%)
# value in %; strip the unit string

Endpoint output: growth of O=C(/C=C/c1cccs1)Nc1ncc(Cc2ccc(Cl)c(Cl)c2)s1 . Value? 32.7

Endpoint output: growth of COC(=O)c1[nH]nc(OC)c1C1(C(C#N)c2nc3ccccc3s2)CCCc2ccccc21 (centres undefined) . Value? 99.8

Endpoint output: growth of COc1ccc(Nc2ncnc3ccc(-c4cncc(NS(C)(=O)=O)c4)cc23)cc1Cl . Value? 11.2

Consider the additional compound presented here.
Endpoint output: growth of O=S(=O)(Nc1cc(Sc2cccc3cccnc23)c(O)c2ccccc12)c1ccc(F)cc1 . Value? 4.77

meta.source: PubChem BioAssay (NCI)
